tested on: ATP; assay: switch fluorescence ratio, 500 uM ATP over buffer (Cy3 cluster intensity, sum of 5 cycles each) (fold (ratio)); higher = stronger signal-on switching upon ATP binding; sequences stand for … in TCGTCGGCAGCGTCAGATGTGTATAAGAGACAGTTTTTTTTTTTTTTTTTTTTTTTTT…TC; conditions: aptamer strand: ATP DNA aptamer (quencher-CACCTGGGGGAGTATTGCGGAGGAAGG + anchor), 100 nM annealed; ATP concentration: 500 uM;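 further: ATP exposure 15 min at 22 °C before imaging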
Endpoint Label: switch fluorescence ratio
Answer as a number with no unit attached.

Below, 3 sequences whose answers are already recorded.
AGAAAATATT = 1
TGTTGCGGGT = 1.01
TTCGGTAGTG = 0.992

Q: switch fluorescence ratio of TCGCGAGTAA on ATP?
Result: 1.04

Q: Could you do the same for ATGGGGTCTG , please?
Result: 1.05

Q: Record: GCGATGGGGA
Result: 1.01

Q: Now try CCATGTCTGT .
Result: 0.963

---

// reported switch fluorescence ratio for each item listed
test system: ATP; experiment: switch fluorescence ratio, 500 uM ATP over buffer (Cy3 cluster intensity, sum of 5 cycles each) (fold (ratio)); higher = stronger signal-on switching upon ATP binding; sequences stand for … in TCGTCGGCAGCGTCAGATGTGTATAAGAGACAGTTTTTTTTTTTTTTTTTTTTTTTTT…TC; conditions: aptamer strand: ATP DNA aptamer (quencher-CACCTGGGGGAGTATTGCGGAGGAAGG + anchor), 100 nM annealed; ATP concentration: 500 uM;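 further: ATP exposure 15 min at 22 °C before imaging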
Give the figure only, with no unit attached.

GTGGGGAATG = 0.986
GAGCTTCTTG = 1.02

Q: Quick one: switch fluorescence ratio for CGGAAACGTG ?
Result: 1.01

Q: Check GGGTAATTTT too.
Result: 1.02

Q: Same again, this time with GGGGTGTAGC
Result: 0.992

Q: Another sequence to look at: TATGTTTTGT
Result: 1.02

Q: Follow-up item: GGTGTTTCGT
Result: 0.973

---

Collected switch fluorescence ratio values appear next to each entry.
test system: ATP; assay: switch fluorescence ratio, 500 uM ATP over buffer (Cy3 cluster intensity, sum of 5 cycles each) (fold (ratio)); higher = stronger signal-on switching upon ATP binding; sequences stand for … in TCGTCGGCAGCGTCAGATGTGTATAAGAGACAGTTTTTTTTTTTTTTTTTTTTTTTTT…TC; conditions: aptamer strand: ATP DNA aptamer (quencher-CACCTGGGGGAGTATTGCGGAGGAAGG + anchor), 100 nM annealed; ATP concentration: 500 uM;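 further: ATP exposure 15 min at 22 °C before imaging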
Could you keep your reply to the number by itself?

Solved cases (9 shown):
TTAAGCTTAT = 1.01
GGAGTCAGCG = 0.977
ACAAGAGGGT = 1
CGATTGTGGG = 0.996
CGGGGGTAGT = 1.03
GCTTCAATGT = 1.03
CGGTTGGGCT = 1.01
TTCGCGTTTT = 1.02
GGGTTTGTAG = 1.01

Now examine the next entry.
Q: Which switch fluorescence ratio reading was recorded for the sequence TACGGGCATA ?
Result: 1.1

---

tested on: ATP; assay: switch fluorescence ratio, 500 uM ATP over buffer (Cy3 cluster intensity, sum of 5 cycles each) (fold (ratio)); higher = stronger signal-on switching upon ATP binding; sequences stand for … in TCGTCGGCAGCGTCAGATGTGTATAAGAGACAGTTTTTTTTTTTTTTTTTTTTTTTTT…TC; settings: aptamer strand: ATP DNA aptamer (quencher-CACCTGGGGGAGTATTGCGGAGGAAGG + anchor), 100 nM annealed; ATP concentration: 500 uM;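 further: ATP exposure 15 min at 22 °C before imaging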
Endpoint Label: switch fluorescence ratio
Reply with just the number.

Would you please look over these solved cases?
GTTTGTTGAG = 0.979
CATAACGTAC = 1.97
CGGATGCGGT = 1.01
ATCATGGTTG = 1
GATAAACGAT = 1.02

Here is the next item to consider.
Q: Entry ATTGGGAGGT : reported switch fluorescence ratio = ?
Result: 0.972

---

test system: ATP; assay: switch fluorescence ratio, 500 uM ATP over buffer (Cy3 cluster intensity, sum of 5 cycles each) (fold (ratio)); higher = stronger signal-on switching upon ATP binding; sequences stand for … in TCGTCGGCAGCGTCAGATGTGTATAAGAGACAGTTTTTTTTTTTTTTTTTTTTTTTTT…TC; conditions: aptamer strand: ATP DNA aptamer (quencher-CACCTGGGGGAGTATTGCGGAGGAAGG + anchor), 100 nM annealed; ATP concentration: 500 uM;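 further: ATP exposure 15 min at 22 °C before imaging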
Classify as follows. Reported switch fluorescence ratio greater than or equal to 1: fulfilled. Reported switch fluorescence ratio below: not fulfilled.

CCAGAAAGTG = fulfilled
ATATTGTGAC = fulfilled
AACCTTATCA = fulfilled
GGTAGGAGTA = not fulfilled
ATGTATTTTG = not fulfilled
TTTCCCGTAT = fulfilled
TTATTAATAC = fulfilled
GTCTAAGGGG = fulfilled
GAAGTAATAG = fulfilled
GGTGTGCTGT = not fulfilled

Q: Dear colleague, could you confirm whether GACTGTTAGG has switch fluorescence ratio at or above 1?
Result: fulfilled

Q: Okay, and CAAAAAATAC ?
Result: fulfilled

Q: // query: CCCTAGGCTT
Result: fulfilled

Q: Cool, now AGGGACAACT
Result: fulfilled

Q: For TCATGTGCAT then?
Result: fulfilled

Q: Consider next the sequence TGAGAATGTT in the same way.
Result: fulfilled

Q: And then AAGGGCAGGG , what is it?
Result: fulfilled

Q: Further, for GGGAATCCTT ?
Result: fulfilled

Q: What do you have for AATCTGGGGC ?
Result: not fulfilled

Q: Repeat with ACAGTTATTA
Result: fulfilled

---

test system: ATP; assay: switch fluorescence ratio, 500 uM ATP over buffer (Cy3 cluster intensity, sum of 5 cycles each) (fold (ratio)); higher = stronger signal-on switching upon ATP binding; sequences stand for … in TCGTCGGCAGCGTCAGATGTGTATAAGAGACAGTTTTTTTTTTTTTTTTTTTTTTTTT…TC; conditions: aptamer strand: ATP DNA aptamer (quencher-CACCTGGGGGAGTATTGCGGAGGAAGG + anchor), 100 nM annealed; ATP concentration: 500 uM;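 further: ATP exposure 15 min at 22 °C before imaging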
Endpoint Label: switch fluorescence ratio
Reply: number alone, nothing else.

Some entries whose results are on file:
TTTTTAGAGT = 0.985
ATGGGACGGG = 1
GAAGTTTTGG = 0.996
CCAAAGTACG = 1.25
ACTTGGGGTG = 1.04
TATAAGGATC = 0.982
TAAAACTCCA = 1.03
TAGAGTTATT = 1.01
TCGGAAGGGG = 1.17
ATGAGTATGT = 0.996

Q: // map TTTCTCTTAG to recorded switch fluorescence ratio (system: ATP);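 further: ATP exposure 15 min at 22 °C before imaging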
Result: 0.989

Q: Now give it for ATAGGAGCAG too.
Result: 1.01

Q: What do you have for CTCGGTTGGT ?
Result: 1.01

---

system: ATP; assay: switch fluorescence ratio, 500 uM ATP over buffer (Cy3 cluster intensity, sum of 5 cycles each) (fold (ratio)); higher = stronger signal-on switching upon ATP binding; sequences stand for … in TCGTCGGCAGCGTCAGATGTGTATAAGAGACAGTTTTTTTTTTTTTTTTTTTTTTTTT…TC; conditions: aptamer strand: ATP DNA aptamer (quencher-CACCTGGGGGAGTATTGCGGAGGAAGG + anchor), 100 nM annealed; ATP concentration: 500 uM;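 further: ATP exposure 15 min at 22 °C before imaging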
Listing of entries alongside the reported switch fluorescence ratio.
# respond with the number and nothing more

Some solved cases for reference:
GGCTTACTAT = 1.01
GCCAATTATT = 0.991
ATCAGATAGC = 0.977

Q: Looking for the measured switch fluorescence ratio of AATAGTTTAG , can you help?
Result: 0.992

Q: Try TCCTGATTGC next.
Result: 1.03

Q: Can you check TATTGGAGGT next?
Result: 0.981

Q: Next up: ACGAGGTTTT
Result: 1.03

Q: Thanks! And TATCGGCTGG ?
Result: 1.01

---

test system: ATP; assay: switch fluorescence ratio, 500 uM ATP over buffer (Cy3 cluster intensity, sum of 5 cycles each) (fold (ratio)); higher = stronger signal-on switching upon ATP binding; sequences stand for … in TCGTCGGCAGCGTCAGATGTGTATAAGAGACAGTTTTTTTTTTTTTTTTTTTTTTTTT…TC; settings: aptamer strand: ATP DNA aptamer (quencher-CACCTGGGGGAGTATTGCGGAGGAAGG + anchor), 100 nM annealed; ATP concentration: 500 uM;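 further: ATP exposure 15 min at 22 °C before imaging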
Below, each entry is listed alongside its reported switch fluorescence ratio.

ATTAAGTTGG = 0.982
AAGCCAGGCC = 1.03
CGGCGGGCTT = 1.02
AAGGGGAGAG = 0.993
CCAAAGATAT = 1.09

Q: // lookup switch fluorescence ratio for ACCGGAGGGC
Result: 0.991

Q: Cool, now AAAGAAGCAT
Result: 1

Q: Please do the same for GAGAGAGGTG as well.
Result: 1.04

Q: Proceed to GAATCTTAGG
Result: 1.03

Q: One more sequence: TTTAGGGGAA
Result: 1.02

Q: And then GGCCAGCGGA , what is it?
Result: 1.01

Q: Also need TTTTATGGCA , thanks.
Result: 1.02

Q: Continue with TCATGGATTT
Result: 1.01
